target: COX-1 (Homo sapiens); construct: endogenous in cells; host or cells: human platelets; assay: Cox-1 assay: PGE2 formation in human platelets; type: cell-based; settings: arachidonic acid 100 μM, PGE2
Sequence (P23219 24-599): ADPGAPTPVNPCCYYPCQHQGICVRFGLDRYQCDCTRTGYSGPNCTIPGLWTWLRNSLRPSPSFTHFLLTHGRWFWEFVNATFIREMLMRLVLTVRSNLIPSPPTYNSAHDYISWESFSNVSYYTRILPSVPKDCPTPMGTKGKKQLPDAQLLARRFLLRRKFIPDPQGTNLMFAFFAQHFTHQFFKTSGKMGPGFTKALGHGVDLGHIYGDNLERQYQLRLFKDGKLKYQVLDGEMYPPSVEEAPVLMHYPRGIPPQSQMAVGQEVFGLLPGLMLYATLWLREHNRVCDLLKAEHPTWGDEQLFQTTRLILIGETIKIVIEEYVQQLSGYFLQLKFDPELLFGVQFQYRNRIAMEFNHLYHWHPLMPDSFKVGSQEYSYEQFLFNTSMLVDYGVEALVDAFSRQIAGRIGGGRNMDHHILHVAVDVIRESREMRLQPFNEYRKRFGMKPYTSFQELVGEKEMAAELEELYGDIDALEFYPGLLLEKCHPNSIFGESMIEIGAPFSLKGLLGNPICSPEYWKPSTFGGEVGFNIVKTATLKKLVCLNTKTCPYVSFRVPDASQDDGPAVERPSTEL
Readout Type: IC50

Inquiry: What value of IC50 has been reported for the following compound? CCc1cccc2c3c([nH]c12)[C@@](CC)(CCO)OCC3 [Compound 35]
Reply text: > 300 µM

Inquiry: Same read-out for CCc1cc(-c2ccccc2)cc2c3c([nH]c12)C(CC)(CCO)OCC3 (centres unmarked) [Compound 1] ?
Reply text: < 10 µM

Inquiry: Item: CCC1(CCO)OCCc2c1[nH]c1c(C(C)C)cccc21 (centres unmarked) [Compound 36]
Reply text: > 300 µM

Inquiry: Cool, now CCC1(CCO)OCCc2c1[nH]c1c(Cl)cccc21 (centres unmarked) [Compound 27]
Reply text: > 300 µM

Inquiry: Further, for CCc1cc(Br)cc2c3c([nH]c12)C(CC)(CCO)OCC3 (centres unmarked) [Compound 47] ?
Reply text: 68.6 µM
